System: Mycobacterium tuberculosis Erdman (autoluminescent)
assay.remarks: AUC25, normalised area under dose response up to IC25 (three-drug combination) (fraction (0-1)); higher = more potent at low dose
condition.description: in vitro model: valerate; time point: terminal (~4-5 doublings, model-specific)
yes (1) means recorded AUC25 is 0.07 or above; no (0) means it is below 0.07.

Item COc1nc2ccc(Br)cc2cc1[C@@H](c1ccccc1)[C@@](O)(CCN(C)C)c1cccc2ccccc12 [bedaquiline] + CC(=O)NC[C@H]1CN(c2ccc(N3CCOCC3)c(F)c2)C(=O)O1 [linezolid] + CO[C@H]1/C=C/O[C@@]2(C)Oc3c(C)c(O)c4c(O)c(c(/C=N/N5CCN(C)CC5)c(O)c4c3C2=O)NC(=O)/C(C)=C\C=C\[C@H](C)[C@H](O)[C@@H](C)[C@@H](O)[C@@H](C)[C@H](OC(C)=O)[C@@H]1C [rifampicin] with AUC25 of 0.07 or above? no (0)

Item COc1nc2ccc(Br)cc2cc1[C@@H](c1ccccc1)[C@@](O)(CCN(C)C)c1cccc2ccccc12 [bedaquiline] + CC(C)/N=c1\cc2n(-c3ccc(Cl)cc3)c3ccccc3nc-2cc1Nc1ccc(Cl)cc1 [clofazimine] + NNC(=O)c1ccncc1 [isoniazid] with AUC25 of 0.07 or above? no (0)

Item CC(C)/N=c1\cc2n(-c3ccc(Cl)cc3)c3ccccc3nc-2cc1Nc1ccc(Cl)cc1 [clofazimine] + CC[C@@H](CO)NCCN[C@@H](CC)CO [ethambutol] + CO[C@H]1/C=C/O[C@@]2(C)Oc3c(C)c(O)c4c(O)c(c(/C=N/N5CCN(C6CCCC6)CC5)c(O)c4c3C2=O)NC(=O)/C(C)=C\C=C\[C@H](C)[C@H](O)[C@@H](C)[C@@H](O)[C@@H](C)[C@H](OC(C)=O)[C@@H]1C [rifapentine] with AUC25 of 0.07 or above? yes (1)

Item CC[C@@H](CO)NCCN[C@@H](CC)CO [ethambutol] + CO[C@H]1/C=C/O[C@@]2(C)Oc3c(C)c(O)c4c(O)c(c(/C=N/N5CCN(C6CCCC6)CC5)c(O)c4c3C2=O)NC(=O)/C(C)=C\C=C\[C@H](C)[C@H](O)[C@@H](C)[C@@H](O)[C@@H](C)[C@H](OC(C)=O)[C@@H]1C [rifapentine] + CO[C@H]1/C=C/O[C@@]2(C)Oc3c(C)c(O)c4c(O)c(c(/C=N/N5CCN(C)CC5)c(O)c4c3C2=O)NC(=O)/C(C)=C\C=C\[C@H](C)[C@H](O)[C@@H](C)[C@@H](O)[C@@H](C)[C@H](OC(C)=O)[C@@H]1C [rifampicin] with AUC25 of 0.07 or above? no (0)

Item COc1c(N2C[C@@H]3CCCN[C@@H]3C2)c(F)cc2c(=O)c(C(=O)O)cn(C3CC3)c12 [moxifloxacin] + O=[N+]([O-])c1cn2c(n1)OC[C@@H](OCc1ccc(OC(F)(F)F)cc1)C2 [pretomanid] + CO[C@H]1/C=C/O[C@@]2(C)Oc3c(C)c(O)c4c(O)c(c(/C=N/N5CCN(C6CCCC6)CC5)c(O)c4c3C2=O)NC(=O)/C(C)=C\C=C\[C@H](C)[C@H](O)[C@@H](C)[C@@H](O)[C@@H](C)[C@H](OC(C)=O)[C@@H]1C [rifapentine] with AUC25 of 0.07 or above? yes (1)
